Property: inhibition; scope: individual molecules
Target: Disintegrin and metalloproteinase domain-containing protein 17 (Homo sapiens)
Assay: ADAM17 inhibitors, primary screen, biochemical, QFRET (AID 720648);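 further: 0% = DMSO-only wells as the low control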
Conditions: recombinant ADAM17, EDANS/DABCYL FRET peptide cleavage; at 6.95 µM; stronger effect = higher value
Among all 370,000 compounds or so, about 3,100 (0.84%) were called active. The entries come from a sample that favours actives as a whole.
Answer in %, number only, no unit symbol.

Some solved cases for reference:
{"columns": ["molecule", "measurement.name", "numeric.value"],
 "data": [
  ["O=C1C2(Cl)C3(Cl)C4(Cl)C(Cl)(Cl)C5(Cl)C3(Cl)C1(Cl)C5(Cl)C24Cl (stereo not given)", "inhibition", 11.4],
  ["CN(C)C(=O)Oc1ccc2c(c1)O/C(=C\\c1ccccc1)C2=O", "inhibition", -16.6],
  ["O=C1NC(=O)C(C/C=C/c2ccccc2)C(=O)N1", "inhibition", -2.76],
  ["CCOC(=O)CC(SP1(=S)OCC2(CCCCO2)C(C2CCCCO2)O1)C(=O)OCC (stereo not given)", "inhibition", 12.4],
  ["Cc1ccc(C(C)C)c(OCC(=O)N2CCN(CC(=O)N3CCOCC3)CC2)c1", "inhibition", 1.57],
  ["COC(=O)C1=C(c2ccc(F)cc2OCc2ccccc2)C[C@@H]2CC[C@H]1N2C(=O)NCc1ccc(Cl)cc1", "inhibition", 3.55]
]}

Kindly note the recorded inhibition for `COC(=O)C1=C(c2ccc(-c3ccccc3)c(F)c2)C[C@@H]2CC[C@H]1N2C(=O)NCc1ccc(F)cc1` , which is 16.6

Kindly note the recorded inhibition for CCOP(=O)(OCC)C(NC(=O)NC)C(N)=O (stereo not given) , which is -4.24

Kindly note the recorded inhibition for `CC(=O)NCC1=C(c2ccc3ccccc3c2)C[C@@H]2CC[C@H]1N2Cc1ccco1` , which is 1.8

Kindly note the recorded inhibition for `Cn1cc(C(=O)OCC(=O)N2CCCC2)c2ccccc21` , which is 1.16
